Record form. Attribute: composite z-score. Fill in for each entry.
Test: binders from COS7 lysate, DM2A8 probe, primary screen, torsin A project, cell lysate, small-molecule microarray, fluorescence 635/667 (AID 1065)
Conditions: higher = more signal; small-molecule microarray, COS7 cell lysate, probe DM2A8, fluorescence, COS7 lysate expressing mutant human TOR1A unless noted
Answer field: number only, no words.

Ask: Answer with the recorded composite z-score of C[C@@H]1Cc2c(cnc3c2CN(C)CC3)CO1 only.
Result: 0.442

Ask: State its composite z-score for this molecule: C=C(CC1(C(C)NP(=O)(c2ccccc2)c2ccccc2)CC1)c1ccccc1 (stereo not given)
Result: -0.954

Ask: Please give the documented composite z-score of CCCc1cc2c(n1Cc1cccc(Cl)c1)C(C)C1CN(C(=O)c3ccccc3)C(C)(C(=O)OC)C21 (stereo not given)
Result: 0.49

Ask: Give the value of composite z-score reported for the following: C[C@H]1O[C@H]2C3=C(C(=O)[C@@H]4O[C@@H]4[C@@H]3O)[C@@H]1[C@@H]1[C@@H](C)OC=C3[C@@H](O)[C@H]4O[C@H]4C(=O)[C@]312
Result: 0.0164

Ask: Kindly indicate its recorded composite z-score. Item: COC(=O)C1(C)C=C2C(=C(C)C(=O)C2C)CN1 (stereo not given)
Result: -0.297

---

Assay: probe aNog binding to arrayed compounds – biochemical, biotinylated probe, 635/667 nm fluorescence, primary screen (AID 1115);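 note: probe is biotinylated aNog protein used at 0.15 µg/mL for 1 h at 4 C; z-score combines 667 nm fluorescence of each spot with its signal to noise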
Conditions: higher = more signal; small-molecule microarray, probe aNog, fluorescence unless noted
Endpoint name: composite z-score
Answer with a number only.

Ask: Consider the compound COc1cc2c(cc1O)C(C)N(C)CC2 (stereo not drawn) . State its measured composite z-score.
Result: -0.343

Ask: Answer with the recorded composite z-score of O=P(c1ccccc1)(c1ccccc1)N1CC2(CC2)CC(O)(c2ccccc2)C1 (stereo not drawn) only.
Result: 1.6

Ask: Item CN1CCC(c2ccc(CO)cc2)=CC1c1cccs1 (stereo not drawn) : provide composite z-score
Result: -0.216

Ask: Specify measured composite z-score for C=C(CC1(CNP(=O)(c2ccccc2)c2ccccc2)CC1)c1ccccc1 .
Result: 1.01

Ask: Determine from records and report composite z-score for COC(=O)[C@H]1[C@H](c2ccccc2)C(=O)[C@]2(O)c3ccccc3O[C@@]12c1ccccc1
Result: -0.293

Ask: Give composite z-score for the following compound: C[C@@H]1Cc2c(cnc3c2CN(C)CC3)CO1
Result: -0.0689

Ask: Provide measured composite z-score value, entry: C[C@@H]1OC=C2[C@@H](O)[C@H]3O[C@H]3C(=O)[C@]23[C@H]1[C@H]1C2=C([C@@H](O)[C@H]4O[C@H]4C2=O)[C@@H]3O[C@@H]1C
Result: -0.244

---

Test system: Inhibin beta A chain (activin A)
Assay: small molecules binding activin A – biochemical, small-molecule microarray, 635 nm fluorescence scan, primary screen (AID 1107);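 note: mouse activin A protein probed at 4.33 µg/mL on printed slides; score merges bound-protein fluorescence near 667 nm with spot signal-to-noise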
Conditions: INHBA, higher = more signal
Can you tell me composite z-score for the items I'm about to list?
Form rule: numeric answer, no unit written next to it.

Ask: Name the recorded composite z-score of the item CCCc1cc2c(n1CCO)C(C)C1CN(C(=O)c3ccccc3)C(C)(C(=O)OC)C21 (configuration not stated) in your answer.
Result: 1.24

Ask: Let me know recorded composite z-score for COc1cc2c(cc1O)C(C)N(C)CC2 (configuration not stated) , thanks.
Result: 0.953

Ask: Tell me its composite z-score given CN1CCC(c2ccc(CO)cc2)=CC1C1CC1 (configuration not stated) as the entry.
Result: 0.939

Ask: Answer with reported composite z-score of CCc1cc2c(nc1CC)CCN(CCC(C)=NOC)C2
Result: 1.66

Ask: State, in one line, measured composite z-score of O=P(c1ccccc1)(c1ccccc1)N1CC2(CC2)CC(O)(c2ccccc2)C1 (configuration not stated)
Result: 0.72

Ask: Quick one: give measured composite z-score for CCOC(=O)[C@H]1CC=C2C(=O)Oc3ccc(Br)cc3[C@@H]21
Result: -1.85

Ask: Quickly give me recorded composite z-score for COC(=O)NCC=Cc1nc(CCC=CC(=O)O[C@H]2CC3CC(=O)O[C@@H](C=CCC(C)C)C[C@@H]4CC[C@H](C)[C@@H](C[C@@H](OC)C[C@H](C2)O3)O4)co1
Result: 0.846

Ask: Supply recorded composite z-score for C[C@H]1O[C@H]2C3=C(C(=O)[C@@H]4O[C@@H]4[C@@H]3O)[C@@H]1[C@@H]1[C@@H](C)OC=C3[C@@H](O)[C@H]4O[C@H]4C(=O)[C@]312 here.
Result: 0.38

Ask: Please list composite z-score recorded for the compound OCc1ccc(C2=CC(C3CC3)N(Cc3sc4ccccc4c3Cl)CC2)cc1 (configuration not stated)
Result: 1.04

Ask: Please list composite z-score recorded for the compound C=C(CC1(C(C)NP(=O)(c2ccccc2)c2ccccc2)CC1)c1ccccc1 (configuration not stated)
Result: 0.853

Ask: Please give measured composite z-score of the following entry: CCOC(=O)[C@H]1CC=C2C(=O)Oc3ccccc3[C@@H]21
Result: 0.0965

Ask: Quickly give me recorded composite z-score for COC(=O)[C@@]1(Cc2ccc(F)cc2)[C@H]2c3cc(C(=O)N(C)C)[nH]c3C[C@H]2CN1C(=O)c1ccccc1
Result: 0.938
